Origin of the recorded values: the PETadex activity labels (doi:10.1016/j.ijbiomac.2025.149745)

Reported values of Proxy for plastic degradation for individual entries
test: Proxy for plastic degradation [melting temperature]; conditions: pH 7

Protein | Proxy for plastic degradation, °C
unnamed (protein) MNFPRASRLMQAAVLGGLMAVSAAATAQTNPYARGPNPTAASLEASAGPFTVRSFTVSRPSGYGAGTVYYPTNAGGTVGAIAIVPGYTARQSSIKWWGPRLASHGFVVITIDTNSTLDQPSSRSSQQMAALRQVASLNGTSSSPIYGKVDTARMGVMGHSMGGGGSLISAANNPSLKAAAPQAPWDSSTNFSSVTVPTLIFAAENDSIAPVNSSALPIYDSMSRNAKQFLEINGGSHFAANSGNSNQALIGKKGVAWMKRFMDNDTRYSTFACENPNSTRVSDFRTANCS | 39.5
unnamed (protein) MNFPRASRLMQAAVLGGLMAVSAAATAQTNPYARGPNPTAASLEASAGPFTVRSFTVSRPSGYGAGTVYYPTNAGGTVGAIAIVPGYTARQSSIKWWGPRLASHGFVVITIDTNSTLDQPSSRSSQQMAALRQVASLNGTSSSPIYGKVDTARMGVMGWSMGGGGSLISAANNPSLKAAAPQAPWDSSTNFSSVTVPTLIFAAENDSIAPVNSSALPIYDSMSRNAKQFLEINGGSHSAANSGNSNQALIGKKGVAWMKRFMDNDTRYSTFACENPNSTRVSDFRTANCS | 40.4
unnamed (protein) MDGVLWRVRTAALMAALLALAAWALWASPSVEAQSNPYQRGPNPTRSALTADGPFSVATYTVSRLSVSGFGGVIYYPTGTSLTFGGIAMSPGYTADASSLAWLGRRLASHGFVVLVINTNSRFDYPDSRASQLSAALNYLRTSSPSAVRARLDANRLAVAGWSMGGGGTLRIAEQNPSLKAAVPLTPWHTDKTFNTSVPVLIVGAEADTVAPVSQHAIPFYQNLPSTTPKVYVELDNASHFAPNSNNAAISVYTISWMKLWVDNDTRYRQFLCNVNDPALSDFRTNNRHCQCQ | 84.9
unnamed (protein) MDGVLWRVRTAALMAALLALAAWALWASPSVEAQSNPYQRGPNPTRSALTADGPFSVATYTVSRLSVSGFGGVIYYPTGTSLTFGGIAMSPGYTADASSLAWLGRRLASHGFVVLVINTNSRFDYPDSRASQLSAALNYLRTSSPSAVRARLDANRLAVAGWSMGGGGTLRIAEQNPSLKAAVPLTPWHTDKTFNTSVPVLIVGCEADTVAPVSQHAIPFYQNLPSTTPKVYVELDNASHSCPNSNNAAISVYTISWMKLWVDNDTRYRQFLCNVNDPALSDFRTNNRHCQCQ | 82.5
